Hi! I'm sharing some IC50 results obtained with PI3Kα (Homo sapiens, UniProt P42336).
Sequence (P42336 whole entry, species assumed): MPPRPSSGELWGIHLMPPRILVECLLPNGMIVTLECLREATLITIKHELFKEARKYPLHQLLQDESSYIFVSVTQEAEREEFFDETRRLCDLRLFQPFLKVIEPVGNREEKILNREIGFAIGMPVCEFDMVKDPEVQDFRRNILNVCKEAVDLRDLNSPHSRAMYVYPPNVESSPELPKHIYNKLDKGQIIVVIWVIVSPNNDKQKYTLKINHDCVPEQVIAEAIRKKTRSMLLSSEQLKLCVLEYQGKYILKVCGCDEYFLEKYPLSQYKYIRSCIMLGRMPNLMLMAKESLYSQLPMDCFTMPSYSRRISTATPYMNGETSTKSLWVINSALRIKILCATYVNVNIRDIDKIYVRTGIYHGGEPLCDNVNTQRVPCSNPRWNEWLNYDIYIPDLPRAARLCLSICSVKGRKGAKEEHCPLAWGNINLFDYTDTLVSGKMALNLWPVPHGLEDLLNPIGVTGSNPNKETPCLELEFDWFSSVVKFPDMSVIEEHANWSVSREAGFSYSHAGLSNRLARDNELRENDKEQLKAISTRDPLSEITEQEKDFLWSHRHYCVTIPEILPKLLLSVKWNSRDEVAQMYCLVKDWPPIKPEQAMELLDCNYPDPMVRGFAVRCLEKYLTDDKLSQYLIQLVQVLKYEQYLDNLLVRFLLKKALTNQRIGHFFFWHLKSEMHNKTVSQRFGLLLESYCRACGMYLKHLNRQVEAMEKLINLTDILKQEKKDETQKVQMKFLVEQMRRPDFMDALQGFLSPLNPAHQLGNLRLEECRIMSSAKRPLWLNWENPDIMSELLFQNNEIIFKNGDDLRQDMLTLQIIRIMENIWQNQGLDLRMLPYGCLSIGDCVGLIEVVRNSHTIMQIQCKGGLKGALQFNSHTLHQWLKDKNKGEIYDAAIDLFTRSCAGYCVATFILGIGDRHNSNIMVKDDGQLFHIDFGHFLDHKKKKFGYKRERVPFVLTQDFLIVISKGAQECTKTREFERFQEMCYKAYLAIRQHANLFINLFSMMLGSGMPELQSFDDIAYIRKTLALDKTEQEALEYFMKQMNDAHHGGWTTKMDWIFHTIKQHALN
Sequence (P27986 whole entry partner, species assumed): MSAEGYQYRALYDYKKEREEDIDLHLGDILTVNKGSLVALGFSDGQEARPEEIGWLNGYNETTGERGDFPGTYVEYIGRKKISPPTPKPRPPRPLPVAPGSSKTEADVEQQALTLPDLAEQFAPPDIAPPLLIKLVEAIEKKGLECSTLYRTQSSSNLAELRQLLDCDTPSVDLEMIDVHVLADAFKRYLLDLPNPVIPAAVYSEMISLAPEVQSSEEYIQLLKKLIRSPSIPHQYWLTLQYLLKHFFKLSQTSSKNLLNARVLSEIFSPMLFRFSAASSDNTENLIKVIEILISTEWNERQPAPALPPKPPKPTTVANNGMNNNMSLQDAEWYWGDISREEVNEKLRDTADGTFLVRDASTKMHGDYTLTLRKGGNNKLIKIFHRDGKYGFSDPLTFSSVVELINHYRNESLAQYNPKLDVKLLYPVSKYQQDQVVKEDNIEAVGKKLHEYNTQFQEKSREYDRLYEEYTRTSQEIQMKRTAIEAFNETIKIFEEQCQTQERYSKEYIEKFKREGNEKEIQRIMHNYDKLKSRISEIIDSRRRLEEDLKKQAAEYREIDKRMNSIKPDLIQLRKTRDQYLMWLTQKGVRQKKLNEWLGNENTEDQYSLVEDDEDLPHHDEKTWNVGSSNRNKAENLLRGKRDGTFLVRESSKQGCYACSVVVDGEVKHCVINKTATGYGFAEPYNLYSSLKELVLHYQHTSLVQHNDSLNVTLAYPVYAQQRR

For PI3Kα (Homo sapiens, UniProt P42336), provide IC50 of CC(=O)N1CCN(c2nc3c(N4CCOCC4)nc(-c4cnc(N)nc4)nc3n2CC2CC2)C[C@H]1C please. 10 to 20 nM

For PI3Kα (Homo sapiens, UniProt P42336), provide IC50 of CC(=O)N1CCN(c2nc3c(N4CCOC[C@@H]4C)nc(-c4cnc(N)nc4C)nc3n2CC2CC2)CC1 please. 10 to 20 nM

For PI3Kα (Homo sapiens, UniProt P42336), provide IC50 of CC(C)Cn1c(N2CCN(C(=O)[C@H](C)O)[C@@H](C)C2)nc2c(N3CCOCC3)nc(-c3cnc(N)nc3)nc21 please. 10 to 20 nM

For PI3Kα (Homo sapiens, UniProt P42336), provide IC50 of CNc1ncc(-c2nc(N3CCOCC3)c3nc(N4CCN(S(C)(=O)=O)CC4)n(CC4CC4)c3n2)cn1 please. 10 to 20 nM
